Cited source for all entries: patent US20170007610A1

Molecular target: kappa opioid receptor (Homo sapiens, UniProt P41145)
Construct: grown in complete Ham's F-12 medium
Sequence (P41145 whole entry): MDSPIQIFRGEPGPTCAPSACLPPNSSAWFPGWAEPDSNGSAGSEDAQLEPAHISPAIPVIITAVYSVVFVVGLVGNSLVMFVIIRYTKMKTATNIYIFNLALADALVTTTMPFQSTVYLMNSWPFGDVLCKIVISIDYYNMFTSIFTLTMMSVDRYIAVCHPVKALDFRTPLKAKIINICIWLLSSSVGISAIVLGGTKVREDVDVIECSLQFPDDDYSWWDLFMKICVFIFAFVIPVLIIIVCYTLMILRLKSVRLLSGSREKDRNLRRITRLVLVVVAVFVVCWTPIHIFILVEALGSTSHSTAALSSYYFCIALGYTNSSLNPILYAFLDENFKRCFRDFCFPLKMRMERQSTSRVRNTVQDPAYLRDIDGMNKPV
Test: Invitro KOR agonistic activity, cAMP based functional assay
Format: cell-based
pEC50: −log10 of the molar value.
Classes (pEC50): bottom range = under 9, center range = from 9 up to 10, top range = 10 and over

COMPOUND	SYSTEM_NAME	ANSWER_LABEL
CN(C(=O)COc1cccc2c1NCCC2)[C@H](CN1CC[C@H](O)C1)c1ccccc1 [Compound 11]	kappa opioid receptor (Homo sapiens, UniProt P41145)	top range
CN(C(=O)COc1ccc2c(c1)CCCN2S(C)(=O)=O)[C@H](CN1CC[C@H](O)C1)c1ccccc1 [Compound 20]	kappa opioid receptor (Homo sapiens, UniProt P41145)	bottom range
CC(=O)N1CCCc2c(OCC(=O)N(C)[C@H](CN3CC[C@H](O)C3)c3ccccc3)ccc(NS(C)(=O)=O)c21 [Compound 31]	kappa opioid receptor (Homo sapiens, UniProt P41145)	center range
CN(C(=O)COc1ccc2cc(NS(C)(=O)=O)ccc2n1)[C@H](CN1CC[C@H](O)C1)c1ccccc1 [Compound 2]	kappa opioid receptor (Homo sapiens, UniProt P41145)	bottom range
CNS(=O)(=O)Nc1ccc(OCC(=O)N(C)[C@H](CN2CC[C@H](O)C2)c2ccccc2)c2cccnc12 [Compound 23]	kappa opioid receptor (Homo sapiens, UniProt P41145)	top range
